test system: SNRK; conditions: concentration: 1 μM, replicates: in singlicate; n = 1;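 also: KINOMEscan kinase panel screen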
endpoint: %Inh
Form field: result (number plus unit)

Record excerpt, results attached:
Oc1ccc2ncnc(Nc3ccc(OCc4ccccc4)cc3)c2c1 :: 0%
Clc1cc(Nc2ncnc3cc[nH]c23)ccc1OCc1ccccn1 :: 26%
Cl.c1ccc(Cn2ncc3cc(Nc4ncnc5ccccc45)ccc32)cc1 :: 0%
COc1cc2ncnc(Nc3ccc(OCc4ccccc4Br)c(Cl)c3)c2cc1OC.Cl :: 0%
O=C(Nc1ccccc1)Nc1ccc(Oc2ccc3nccn3n2)cc1 :: 0%

Challenge: Sample Cc1ccc(NC(=O)c2cccc(C#N)c2)cc1-c1ccc(C(=O)Nc2ccncc2)cc1 — what was its %Inh?
Response given: 17%

Challenge: Sample COc1ccc(NC(=O)Nc2ccc(C)c(-c3ccc(C(=O)Nc4ccncc4)cc3)c2)cc1 — what was its %Inh?
Response given: 0%

Challenge: Sample Fc1ccc(Nc2nccc(-c3c(-c4ccc(Cl)cc4)nn4ncccc34)n2)cc1F — what was its %Inh?
Response given: 0%

Challenge: Sample c1ccc(-c2ccc3c(-c4ccnc(Nc5ccc6c(c5)OCCO6)n4)cnn3n2)cc1 — what was its %Inh?
Response given: 0%

Challenge: Sample Nc1nc(-c2ccc3c(N)n[nH]c3c2)cc(N2CCC[C@@H](C(=O)Nc3ccccc3)C2)n1.O=C(O)C(F)(F)F.O=C(O)C(F)(F)F — what was its %Inh?
Response given: 0%

Challenge: Sample O=C(c1ccc(-c2cc(-c3c[nH]nc3-c3ccccn3)ccn2)cc1)N1CCCC1 — what was its %Inh?
Response given: 0%

Challenge: Sample Cl.Cn1ccc(-c2cccc(Nc3ccnc4cc(-c5nccs5)ccc34)c2)n1 — what was its %Inh?
Response given: 0%

Challenge: Sample C[C@H]1CC[C@@H](C(=O)Nc2ccccc2)CN1c1cc(-c2ccc3c(N)n[nH]c3c2)nc(N)n1 — what was its %Inh?
Response given: 0%

Challenge: Sample CCC(CC)(CC)n1cnc2c(N)ncnc21 — what was its %Inh?
Response given: 30%

Challenge: Sample Fc1cccc(COc2ccc(Nc3ncnc4nn5ccccc5c34)cc2Cl)c1 — what was its %Inh?
Response given: 0%

Challenge: Sample Cl.Fc1ccccc1COc1ccc(Nc2ncnc3ccc(-c4nnc(C(F)(F)F)o4)cc23)cc1Cl — what was its %Inh?
Response given: 0%
